- method_description: Caco-2 cell transmembrane transport experiment
- condition: human, Caco-2, pH 7.4, Papp B-A Sample_02, 10 μM, pH 7.4, 37° C., 90 min, basolateral to apical
Quick rule for you: Papp B→A at 90 min, 10 μM under 30 ×10⁻⁶ cm/s gets Y, anything else gets N.

{"columns": ["compound", "label"],
 "data": [
  ["C=CC(=O)N1CCN(c2nc(=O)n(-c3c(C)ccnc3C(C)C)c3nc(-c4c(F)c(F)cc5ccoc45)c(Cl)cc23)[C@@H](C)C1 (single isomer, unassigned)", "Y"],
  ["C=CC(=O)N1CCN(c2nc(=O)n(-c3c(C)ccnc3C(C)C)c3nc(-c4c(F)ccc5ccoc45)c(Cl)cc23)[C@@H](C)C1 (single isomer, unassigned)", "Y"],
  ["C=CC(=O)N1CCN(c2nc(=O)n(-c3c(C)ccnc3C(C)C)c3nc(-c4c(O)cccc4F)c(F)cc23)[C@@H](C)C1 (atropisomer, axis not shown) [AMG510, reference compound]", "N"],
  ["C=CC(=O)N1C[C@H](C)N(c2nc(=O)n(-c3c(C)ccnc3C(C)C)c3nc(-c4c(F)ccc5ccoc45)c(Cl)cc23)C[C@H]1C (single isomer, unassigned)", "Y"],
  ["C=CC(=O)N1CCN(c2nc(=O)n(-c3c(C)ccnc3C(C)C)c3nc(-c4c(F)ccc5ccoc45)c(F)cc23)[C@@H](C)C1 (single isomer, unassigned)", "Y"],
  ["C=CC(=O)N1C[C@H](C)N(c2nc(=O)n(-c3c(C)ccnc3C(C)C)c3nc(-c4c(F)c(F)cc5ccoc45)c(Cl)cc23)C[C@H]1C (single isomer, unassigned)", "Y"]
]}

---

- method_description: Pharmacokinetic (PK) experiment in rats by gavage
- Format: in vivo
- condition: rat, plasma, po, male SD rats, 20 mg/kg
Quick rule for you: half-life under 3 h gets Fulfilled, anything else gets Not fulfilled.

{"columns": ["compound", "label"],
 "data": [
  ["C=CC(=O)N1CCN(c2nc(=O)n(-c3c(C)ccnc3C(C)C)c3nc(-c4c(F)ccc5c4OCO5)c(F)cc23)[C@@H](C)C1 [Compound 69]", "Not fulfilled"],
  ["C=CC(=O)N1CCN(c2nc(=O)n(-c3c(C)ccnc3C(C)C)c3nc(-c4c(F)ccc5c4OCO5)c(Cl)cc23)[C@@H](C)C1 [Compound 97]", "Not fulfilled"],
  ["C=CC(=O)N1C[C@H](C)N(c2nc(=O)n(-c3c(C)ccnc3C(C)C)c3nc(-c4c(F)ccc5ccoc45)c(Cl)cc23)C[C@H]1C (single isomer, unassigned) [Compound 90-1]", "Not fulfilled"],
  ["C=CC(=O)N1C[C@H](C)N(c2nc(=O)n(-c3c(C)ccnc3C(C)C)c3nc(-c4c(F)c(F)cc5ccoc45)c(F)cc23)C[C@H]1C (single isomer, unassigned) [Compound 91-1]", "Fulfilled"],
  ["C=CC(=O)N1C[C@H](C)N(c2nc(=O)n(-c3c(C)ccnc3C(C)C)c3nc(-c4c(F)c(F)cc5ccoc45)c(Cl)cc23)C[C@H]1C (single isomer, unassigned) [Compound 104-1]", "Not fulfilled"]
]}

---

Listed here: items and their measured Cmax.
- method_description: Pharmacokinetic (PK) experiment in rats by gavage
- Format: in vivo
- condition: rat, plasma, po, male SD rats, 20 mg/kg

{"columns": ["molecule", "Cmax"],
 "data": [
  ["C=CC(=O)N1CCN(c2nc(=O)n(-c3c(C)ccnc3C(C)C)c3nc(-c4c(F)ccc5c4OCO5)c(Cl)cc23)[C@@H](C)C1", "4660 ng/mL"],
  ["C=CC(=O)N1C[C@H](C)N(c2nc(=O)n(-c3c(C)ccnc3C(C)C)c3nc(-c4c(F)ccc5ccoc45)c(F)cc23)C[C@H]1C (single isomer, unassigned) [Compound 89-1]", "3200 ng/mL"],
  ["C=CC(=O)N1CCN(c2nc(=O)n(-c3c(C)ccnc3C(C)C)c3nc(-c4c(F)c(F)cc5ccoc45)c(Cl)cc23)[C@@H](C)C1 (single isomer, unassigned) [Compound 103-1]", "2700 ng/mL"],
  ["C=CC(=O)N1C[C@H](C)N(c2nc(=O)n(-c3c(C)ccnc3C(C)C)c3nc(-c4c(F)c(F)cc5ccoc45)c(Cl)cc23)C[C@H]1C (single isomer, unassigned) [Compound 104-1]", "2590 ng/mL"],
  ["C=CC(=O)N1CCN(c2nc(=O)n(-c3c(C)ccnc3C(C)C)c3nc(-c4c(F)ccc5ccoc45)c(Cl)cc23)[C@@H](C)C1 [Compound 73]", "3360 ng/mL"]
]}
